compounds and their reported IC50
System under test: human S1P1 receptors (Homo sapiens, UniProt P21453)
Construct: myc (N)
Sequence (P21453 whole entry): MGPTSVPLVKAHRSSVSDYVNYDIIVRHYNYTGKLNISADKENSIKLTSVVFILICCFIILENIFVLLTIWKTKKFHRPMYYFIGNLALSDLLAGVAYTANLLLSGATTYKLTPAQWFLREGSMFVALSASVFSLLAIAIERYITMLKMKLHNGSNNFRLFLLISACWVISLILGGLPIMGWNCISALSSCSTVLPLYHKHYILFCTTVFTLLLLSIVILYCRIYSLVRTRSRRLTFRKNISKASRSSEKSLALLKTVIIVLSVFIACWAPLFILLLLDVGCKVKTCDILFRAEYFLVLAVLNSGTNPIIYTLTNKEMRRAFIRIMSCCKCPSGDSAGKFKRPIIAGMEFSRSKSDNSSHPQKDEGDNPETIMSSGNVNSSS
Assay protocol: Human S1P1 Receptor Calcium FLIPR Antagonist Assay (HeLa Gα16 S1P1)
Measurement context: relative antagonism of Ca2+ signal evoked by probing agonist GNF-AC-1 at EC80; HeLa-S1P1/Gα16 cells
Give the quantity in nM, number only.

As a guide, the following entries are already answered.
Compound: CC[C@@H](Nc1cccc(-c2cc(C)c(C(=O)N(C)C3(C(=O)O)CC3)c(C)c2)c1)c1ccc(Cl)c(C)c1
IC50 / nM: 8

Compound: CCC(Nc1cccc(-c2ccc(C(=O)N(C)[C@@H](C)C(=O)O)c(C)c2)c1)c1ccc(Cl)c(C)c1 (stereo partly drawn)
IC50 / nM: 2

Compound: Cc1cc(C(C)Nc2cccc(-c3ccc(C(=O)N(C)[C@@H](C)C(=O)O)c(F)c3)c2)ccc1Cl (stereo partly drawn)
IC50 / nM: 3

Compound: Cc1cc(F)cc(C(C)Nc2cccc(-c3cc(C)c(C(=O)N[C@@H](C)C(=O)O)c(C)c3)c2)c1 (stereo partly drawn)
IC50 / nM: 2

Compound: Cc1cc(C(C)Nc2cccc(-c3cc(C)c(C(=O)NC4(C(=O)O)CNC4)c(C)c3)c2)ccc1Cl (stereo not drawn)
IC50 / nM: 2

Compound: Cc1cc(C(C)Nc2cccc(-c3ccc(C(=O)N(C)[C@@H](C)C(=O)O)c(C)c3)c2)ccc1Cl (stereo partly drawn)
IC50 / nM: 3

Compound: Cc1cc(C(Nc2cccc(-c3cc(C)c(C(=O)N(C)[C@@H](C)C(=O)O)c(C)c3)c2)C(F)F)ccc1Cl (stereo partly drawn)
IC50 / nM: 3

Compound: COC[C@H](NC(=O)c1c(C)cc(-c2cccc(NC(C)c3ccc(Cl)c(C)c3)c2)cc1C)C(=O)O (stereo partly drawn)
IC50 / nM: 2

Compound: COc1cc(C(C)Nc2cccc(-c3cc(C)c(C(=O)N[C@@H](C)C(=O)O)c(C)c3)c2)ccc1F (stereo partly drawn)
IC50 / nM: 2

Compound: CCC(Nc1cccc(-c2ccc(C(=O)N[C@@H](C)C(=O)O)c(C(F)(F)F)c2)c1)c1ccc(Cl)c(C)c1 (stereo partly drawn)
IC50 / nM: 3

What value of measured IC50 is listed for CCC(Nc1cccc(-c2cc(C)c(C(=O)N[C@@H](C)C(=O)O)c(C)c2)c1)c1ccc(Cl)c(C)c1 (stereo partly drawn) ? 2

----------
compounds and their reported pIC50
System under test: human S1P1 receptors (Homo sapiens, UniProt P21453)
Construct: myc (N)
Assay protocol: Human S1P1 Receptor Calcium FLIPR Antagonist Assay (HeLa Gα16 S1P1)
Measurement context: relative antagonism of Ca2+ signal evoked by probing agonist GNF-AC-1 at EC80; HeLa-S1P1/Gα16 cells
API: returns pIC50 as number; meaning -log10 of concentration in mol/L.

As a guide, the following entries are already answered.
Compound: Cc1cc(C(C)(C)Nc2cccc(-c3ccc(C(=O)N[C@@H](C)C(=O)O)c(Cl)c3)c2)ccc1Cl [Example 97]
pIC50: 9.00
//
Compound: Cc1cc(C(C)Nc2cccc(-c3cc(C)c(C(=O)N[C@@H](CO)C(=O)O)c(C)c3)c2)ccc1Cl (stereo partly shown) [Example 21]
pIC50: 8.70

What value of measured pIC50 is listed for CC[C@H](c1ccc(Cl)c(C)c1)N(C)c1ccc(F)c(-c2cc(C)c(C(=O)N[C@@H](C)C(=O)O)c(C)c2)c1 [Example 116] ? 8.70

What value of measured pIC50 is listed for Cc1ccc(C(C)Nc2cccc(-c3cc(C)c(C(=O)N[C@@H](C)C(=O)O)c(C)c3)c2)cc1C (stereo partly shown) [Example 11] ? 8.40

What value of measured pIC50 is listed for Cc1cc(C(C)Nc2cccc(-c3cc(F)c(C(=O)N(C)[C@@H](C)C(=O)O)c(F)c3)c2)cc(C)c1Cl (stereo partly shown) [Example 57] ? 8.22

What value of measured pIC50 is listed for Cc1cc(-c2cccc(NC(C)c3ccc(Cl)c(C(F)(F)F)c3)c2)cc(C)c1C(=O)N[C@@H](C)C(=O)O (stereo partly shown) [Example 14] ? 8.40

What value of measured pIC50 is listed for CCC(Nc1cccc(-c2cc(C)c(C(=O)N[C@@H](C)C(=O)O)c(C)c2)c1)c1ccc(Cl)c(Cl)c1 (stereo partly shown) [Example 20] ? 8.10

Numbers sourced from patent US20100168079A1.
